Recorded MIC values for a group of compounds are listed next.
Tested on: A. baumannii A489
Experiment: MIC without and with sub-inhibitory polymyxin B (Example 4)
Type: cell-based, Acinetobacter baumannii
Details: Acinetobacter baumannii, A489, A. baumannii A489; +[…] PB; 2nd experiment; read-out: MIC

- compound: "Cc1c(-c2ccc(N)cc2)ccn2c(=O)c(C(=O)O)cc(C3CC3)c12 [Compound 8]"
  MIC: "≤ 0.03 µg/mL"
- compound: "C[C@H]1COc2c(N3CCN(C)CC3)c(F)cc3c(=O)c(C(=O)O)cn1c23 [Levofloxacin, reference compound]"
  MIC: "8 µg/mL"
- compound: "Cc1c(-c2ccc(N)cc2)c(F)cn2c(=O)c(C(=O)O)cc(C3CC3)c12 [Compound 7]"
  MIC: "≤ 0.03 µg/mL"

Attention now shifts to the item below.
For this compound ( Cc1c(-c2ccc(CN)cc2)ccn2c(=O)c(C(=O)O)cc(C3CC3)c12 [Compound 5] ), measured MIC is 0.5 µg/mL

###

MIC values for the compounds below.
Test system: A. baumanii 19606
Test: MIC, standard panel of Gram-positive and Gram-negative strains (Example 2)
Assay type: cell-based
Conditions: Acinetobacter baumannii
Lab book: enter the figure in µg/mL, no units written.

Sample answers from the record:
- line notation: "Cc1c(-c2cc(Cl)c(N)c(Cl)c2)ccn2c(=O)c(C(=O)O)cc(C3CC3)c12"
  MIC, µg/mL: 0.25
- line notation: "Cc1c(-c2ccc(CN)c(F)c2)ccn2c(=O)c(C(=O)O)cc(C3CC3)c12"
  MIC, µg/mL: 0.25
- line notation: "Cc1c(-c2ccc(N)cc2)ccn2c(=O)c(C(=O)O)cc(C3CC3)c12"
  MIC, µg/mL: 0.125
- line notation: "Cc1c(-c2ccc(N)cc2)c(F)cn2c(=O)c(C(=O)O)cc(C3CC3)c12"
  MIC, µg/mL: 0.5
- line notation: "Cc1c(-c2cc(F)c(N)cc2F)ccn2c(=O)c(C(=O)O)cc(C3CC3)c12"
  MIC, µg/mL: 0.06
- line notation: "Cc1c(-c2ccc(CN)cc2)ccn2c(=O)c(C(=O)O)cc(C3CC3)c12"
  MIC, µg/mL: 0.25

Now for the compound whose MIC we want.
Recorded MIC (compound Cc1c(-c2ccc(CN)cc2)c(F)cn2c(=O)c(C(=O)O)cc(C3CC3)c12 ): 0.5

###

Tested on: A. baumannii A390
Test: MIC without and with sub-inhibitory polymyxin B (Example 4)
Format: cell-based, Acinetobacter baumannii
Conditions: A. baumannii A390; +0.06 μg/ml PB; 2nd experiment
metric name: MIC without PB/MIC + PB
Could you respond with only the numeric value?

- molecule: "Cc1c(-c2ccc(N)cc2)c(F)cn2c(=O)c(C(=O)O)cc(C3CC3)c12"
  MIC without PB/MIC + PB: 128
- molecule: "C[C@H]1COc2c(N3CCN(C)CC3)c(F)cc3c(=O)c(C(=O)O)cn1c23 [Levofloxacin, reference compound]"
  MIC without PB/MIC + PB: 2

Short answer for Cc1c(-c2ccc(CN)c(F)c2)ccn2c(=O)c(C(=O)O)cc(C3CC3)c12 : MIC without PB/MIC + PB was 64

For Cc1c(-c2ccc(N)cc2)ccn2c(=O)c(C(=O)O)cc(C3CC3)c12 the molecule record lists MIC without PB/MIC + PB as 32

Recorded result, Cc1c(-c2ccc(CN)cc2)ccn2c(=O)c(C(=O)O)cc(C3CC3)c12 , MIC without PB/MIC + PB: 4

Cited source: patent US20190105367A1
